target: Androgen AR receptor (Homo sapiens); construct: expressed in transfected cells; host or cells: NIH3T3 cells; assay: Receptor Selection and Amplification (R-SAT) assay, androgen receptor agonist activity; format: cell-based; settings: NIH3T3, read-out: % Efficacy
Sequence (P10275 whole entry): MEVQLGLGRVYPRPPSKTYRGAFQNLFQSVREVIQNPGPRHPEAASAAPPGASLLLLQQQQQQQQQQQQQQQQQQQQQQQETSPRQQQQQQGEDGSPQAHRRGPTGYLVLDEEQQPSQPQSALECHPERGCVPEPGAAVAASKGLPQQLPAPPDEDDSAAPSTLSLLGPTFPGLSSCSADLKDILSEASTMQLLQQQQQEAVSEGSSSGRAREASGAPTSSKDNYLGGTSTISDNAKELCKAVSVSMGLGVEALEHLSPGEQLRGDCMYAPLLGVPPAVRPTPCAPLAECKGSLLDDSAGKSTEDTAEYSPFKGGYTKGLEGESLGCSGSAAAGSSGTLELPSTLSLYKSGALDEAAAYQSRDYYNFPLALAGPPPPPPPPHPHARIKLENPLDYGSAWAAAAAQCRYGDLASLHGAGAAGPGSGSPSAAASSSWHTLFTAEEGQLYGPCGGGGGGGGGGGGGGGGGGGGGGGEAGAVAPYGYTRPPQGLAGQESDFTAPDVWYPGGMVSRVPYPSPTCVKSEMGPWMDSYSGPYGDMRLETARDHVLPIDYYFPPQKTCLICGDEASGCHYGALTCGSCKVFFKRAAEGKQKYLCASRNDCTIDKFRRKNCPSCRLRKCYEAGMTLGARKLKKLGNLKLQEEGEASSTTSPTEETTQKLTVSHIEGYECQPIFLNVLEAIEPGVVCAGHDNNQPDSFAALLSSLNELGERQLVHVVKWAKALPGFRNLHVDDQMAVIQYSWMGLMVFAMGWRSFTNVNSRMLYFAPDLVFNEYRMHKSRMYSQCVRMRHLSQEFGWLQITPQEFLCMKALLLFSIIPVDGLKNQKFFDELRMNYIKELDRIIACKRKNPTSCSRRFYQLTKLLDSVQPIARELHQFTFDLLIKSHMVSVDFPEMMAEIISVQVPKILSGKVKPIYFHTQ
Where a name gives a salt, the structure may show the parent alone.
Values of Emax strictly less than 60% map to yes, and values of at least 60% map to no.

Worked set:
| compound | class-assignment |
| --- | --- |
| N#Cc1ccc(N2[C@@H]3CC[C@H]2CC(NCCc2c[nH]cn2)C3)c2ccccc12 (mixture of isomers) [156AF11-229, dihydrochloride] | yes |
| N#Cc1ccc(N2CCCCC2)c2ccccc12 | no |
| CC1CCC(C)N1c1ccc([N+](=O)[O-])c2ccccc12 (stereo not shown) | no |
| CC1(O)CC2CCC(C1)N2c1ccc(C#N)c2ccccc12 (stereo not shown) | no |
| CC1C=CC(C)N1c1ccc(C#N)c2ccccc12 (stereo not shown) | no |
| N#Cc1ccc(N2CCC(O)C2)c2ccccc12 (stereo not shown) | yes |

Enquiry: # TODO verify Emax < 60% strictly for this compound: N#Cc1ccc(N2C3CCC2CC(OC(=O)CCN2CCOCC2)C3)c2ccccc12 (stereo not shown) [156AF32-246, hydrochloride]
Return: yes
